B1: library; numbered along this chain (parent)
chain: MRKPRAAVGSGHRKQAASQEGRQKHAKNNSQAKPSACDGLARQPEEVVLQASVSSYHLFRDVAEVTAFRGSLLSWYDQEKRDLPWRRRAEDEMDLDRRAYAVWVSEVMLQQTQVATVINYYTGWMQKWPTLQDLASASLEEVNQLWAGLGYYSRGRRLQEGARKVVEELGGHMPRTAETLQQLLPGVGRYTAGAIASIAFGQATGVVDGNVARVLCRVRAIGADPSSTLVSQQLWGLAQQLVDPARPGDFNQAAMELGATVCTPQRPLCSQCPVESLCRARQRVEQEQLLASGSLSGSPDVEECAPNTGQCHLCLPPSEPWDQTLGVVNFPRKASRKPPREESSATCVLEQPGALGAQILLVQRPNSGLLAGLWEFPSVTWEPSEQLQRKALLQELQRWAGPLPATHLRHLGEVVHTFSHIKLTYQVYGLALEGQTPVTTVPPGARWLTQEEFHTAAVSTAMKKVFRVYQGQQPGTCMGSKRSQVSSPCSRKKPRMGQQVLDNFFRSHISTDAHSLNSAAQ

Variants of: B1
Run description: 8OG:A repair function score (normalized; synonymous = 0, nonsense = -1) (normalized log-likelihood score); higher = more repair activity (WT-like);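 also: cells sorted at 72 h after reporter transfection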
Condition: with 8OG:A DNA repair reporter (GFP) in HEK-293 MUTYH KO cells
8OG:A repair function score: recorded values
# answer = number (no unit)

T122N    0.119
C269K    -1.17
E141M    -0.111
L325H    -0.0759

Qu. What does the data say about its 8OG:A repair function score? Entry: K337S
Ans. -0.109

Qu. What value of measured 8OG:A repair function score is listed for S507E ?
Ans. 0.000264

Qu. Consider the variant D322Q and give its measured 8OG:A repair function score.
Ans. -0.0416

Qu. Sample T260M — what was its 8OG:A repair function score?
Ans. -0.0209

Qu. For the variant K80L , what 8OG:A repair function score is on record?
Ans. -0.278
